Reference for the values: ChEMBL document CHEMBL1157915

target: Glutamate NMDA receptor; GRIN1/GRIN2B (Homo sapiens, UniProt Q05586+Q13224); test: Displacement of [3H]ifenprodil from human NR1-1a/NR2B receptor expressed in mouse L13-E6 cells
Sequence (Q13224 whole entry, other chains not shown): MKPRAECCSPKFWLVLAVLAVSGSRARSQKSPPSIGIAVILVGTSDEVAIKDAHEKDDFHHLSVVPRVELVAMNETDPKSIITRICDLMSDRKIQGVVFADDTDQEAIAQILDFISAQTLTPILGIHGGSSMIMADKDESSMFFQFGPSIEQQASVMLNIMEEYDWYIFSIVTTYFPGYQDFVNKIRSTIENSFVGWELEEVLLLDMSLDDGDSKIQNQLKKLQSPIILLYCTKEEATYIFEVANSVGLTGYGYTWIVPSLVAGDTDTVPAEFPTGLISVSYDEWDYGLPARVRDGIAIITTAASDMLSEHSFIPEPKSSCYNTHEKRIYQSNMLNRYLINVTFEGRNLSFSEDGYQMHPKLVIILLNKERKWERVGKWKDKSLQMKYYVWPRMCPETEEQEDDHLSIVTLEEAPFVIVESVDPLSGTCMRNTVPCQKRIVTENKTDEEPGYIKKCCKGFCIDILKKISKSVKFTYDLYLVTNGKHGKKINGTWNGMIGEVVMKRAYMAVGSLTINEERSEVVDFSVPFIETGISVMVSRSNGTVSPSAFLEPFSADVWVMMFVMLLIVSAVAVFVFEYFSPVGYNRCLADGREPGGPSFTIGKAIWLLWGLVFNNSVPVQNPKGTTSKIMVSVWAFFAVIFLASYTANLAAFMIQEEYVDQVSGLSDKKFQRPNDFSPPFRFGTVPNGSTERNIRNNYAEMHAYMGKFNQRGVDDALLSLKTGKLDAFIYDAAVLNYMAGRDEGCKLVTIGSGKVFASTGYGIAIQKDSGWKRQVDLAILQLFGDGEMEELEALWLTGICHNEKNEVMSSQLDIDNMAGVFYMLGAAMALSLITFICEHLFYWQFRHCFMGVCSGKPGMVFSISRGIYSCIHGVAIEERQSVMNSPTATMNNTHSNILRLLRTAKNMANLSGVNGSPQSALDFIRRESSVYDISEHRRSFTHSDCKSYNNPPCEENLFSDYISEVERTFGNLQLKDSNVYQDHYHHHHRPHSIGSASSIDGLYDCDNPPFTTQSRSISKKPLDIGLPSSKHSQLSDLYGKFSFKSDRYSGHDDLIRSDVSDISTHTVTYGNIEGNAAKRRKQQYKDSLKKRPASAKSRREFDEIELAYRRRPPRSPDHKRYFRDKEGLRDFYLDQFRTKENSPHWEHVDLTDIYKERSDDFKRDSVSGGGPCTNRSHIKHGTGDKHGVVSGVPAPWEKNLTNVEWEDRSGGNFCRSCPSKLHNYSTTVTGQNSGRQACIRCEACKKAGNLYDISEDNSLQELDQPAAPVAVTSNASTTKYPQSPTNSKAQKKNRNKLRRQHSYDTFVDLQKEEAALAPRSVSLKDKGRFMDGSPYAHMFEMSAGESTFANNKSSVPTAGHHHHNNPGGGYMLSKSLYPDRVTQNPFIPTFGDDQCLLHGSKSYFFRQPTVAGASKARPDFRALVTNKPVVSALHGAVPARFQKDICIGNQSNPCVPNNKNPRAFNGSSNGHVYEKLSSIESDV
experimental-readout: pKi
Give bare numbers, as −log10 of the molar value.

In one line, give reported pKi of the entry `[Br-].[Br-].c1ccc2c(c1)[nH]c1c[n+](CCCCCC[n+]3ccc4c(c3)[nH]c3ccccc34)ccc12` . 4.70

---

molecular target: UniProt P81908
Sequence (P81908 whole entry): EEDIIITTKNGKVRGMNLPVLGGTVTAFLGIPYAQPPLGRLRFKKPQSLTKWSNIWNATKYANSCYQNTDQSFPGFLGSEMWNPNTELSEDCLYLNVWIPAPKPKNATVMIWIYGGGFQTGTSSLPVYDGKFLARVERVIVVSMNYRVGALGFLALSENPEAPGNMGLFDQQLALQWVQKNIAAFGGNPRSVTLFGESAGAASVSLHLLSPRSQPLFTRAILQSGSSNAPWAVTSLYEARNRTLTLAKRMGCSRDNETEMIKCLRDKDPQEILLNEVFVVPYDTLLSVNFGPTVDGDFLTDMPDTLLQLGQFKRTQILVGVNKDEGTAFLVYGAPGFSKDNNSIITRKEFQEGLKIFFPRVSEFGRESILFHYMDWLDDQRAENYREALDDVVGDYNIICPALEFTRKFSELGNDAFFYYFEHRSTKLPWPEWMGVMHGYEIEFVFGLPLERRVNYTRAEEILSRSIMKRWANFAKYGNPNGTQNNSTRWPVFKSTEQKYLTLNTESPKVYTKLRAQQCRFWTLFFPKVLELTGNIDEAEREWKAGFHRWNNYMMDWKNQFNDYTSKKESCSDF
experimental-readout: IC50 (nM)
Give bare numbers, in nM.

>  <smiles-input>
C[n+]1ccc2c(c1)[nH]c1ccccc12

>  <IC50 / nM>
540

$$$$
>  <smiles-input>
[Br-].[Br-].c1ccc2c(c1)[nH]c1c[n+](CCC[n+]3ccc4c(c3)[nH]c3ccccc34)ccc12

>  <IC50 / nM>
652

$$$$
>  <smiles-input>
[Br-].[Br-].c1ccc2c(c1)[nH]c1c[n+](CCCCCCCCC[n+]3ccc4c(c3)[nH]c3ccccc34)ccc12

>  <IC50 / nM>
40

$$$$
>  <smiles-input>
[Br-].[Br-].c1ccc2c(c1)[nH]c1c[n+](CCCCCCCCCC[n+]3ccc4c(c3)[nH]c3ccccc34)ccc12

>  <IC50 / nM>
49

$$$$
>  <smiles-input>
[Br-].[Br-].c1ccc2c(c1)[nH]c1c[n+](CCCCCCCCCCC[n+]3ccc4c(c3)[nH]c3ccccc34)ccc12

>  <IC50 / nM>
18

$$$$

Kindly give each listed record's IC50.
1. Oc1ccc2[nH]c3c[n+](CCCCC[n+]4ccc5c(c4)[nH]c4ccc(O)cc45)ccc3c2c1.[Br-].[Br-]
2. CCn1c2ccccc2c2cc[n+](C)cc21
3. [Br-].[Br-].c1ccc2c(c1)[nH]c1c[n+](CCCCCCCC[n+]3ccc4c(c3)[nH]c3ccccc34)ccc12
4. c1cc[n+](CCCCCC[n+]2ccc3c(c2)[nH]c2ccccc23)cc1
5. C[n+]1ccc2c3ccccc3n(CCCCCn3c4ccccc4c4cc[n+](C)cc43)c2c1
6. [Br-].[Br-].c1ccc2c(c1)[nH]c1c[n+](CC[n+]3ccc4c(c3)[nH]c3ccccc34)ccc12
7. C[n+]1ccc2c3ccccc3n(CCCCCCCCCCCCn3c4ccccc4c4cc[n+](C)cc43)c2c1.[I-].[I-]

1. 1630
2. 2020
3. 75
4. 6330
5. 19
6. 319
7. 4

Kindly give each listed record's IC50.
1. [Br-].[Br-].c1ccc2c(c1)[nH]c1c[n+](CCCC[n+]3ccc4c(c3)[nH]c3ccccc34)ccc12
2. [Br-].[Br-].c1ccc2c(c1)[nH]c1c[n+](CCCCCC[n+]3ccc4c(c3)[nH]c3ccccc34)ccc12
3. [Br-].[Br-].c1ccc2c(c1)[nH]c1c[n+](CCCCCCC[n+]3ccc4c(c3)[nH]c3ccccc34)ccc12
4. c1ccc2c3c([nH]c2c1)CN(CCCCCCCCCCN1CCc2c([nH]c4ccccc24)C1)CC3
5. [Br-].[Br-].c1ccc2c(c1)[nH]c1c[n+](CCOCCOCCOCC[n+]3ccc4c(c3)[nH]c3ccccc34)ccc12

78
186
65
2900
195

Kindly give each listed record's IC50.
1. COc1ccc2[nH]c3c[n+](CCCCC[n+]4ccc5c(c4)[nH]c4ccc(OC)cc45)ccc3c2c1.[Br-].[Br-]
2. CCC[n+]1ccc2c(c1)[nH]c1ccccc12
3. [Br-].[Br-].c1ccc2c(c1)[nH]c1c[n+](CCCCCCCCCCCC[n+]3ccc4c(c3)[nH]c3ccccc34)ccc12

319
2310
22
